// Concentration (of maximum stimulation of adiponectin secretion) lookup, one value per entry
Tested on: adiponectin secretion in LPS/3T3-L1 adipocytes
Experiment: Adiponectin secretion in the lipopolysaccharide/3T3-L1 adipocyte model (Example 26)
Details: 100 ng LPS/ml
Value expressed in µg/mL; do not type the unit.

Consider the reported Concentration (of maximum stimulation of adiponectin secretion) for these molecules:
CC(C)Cc1ccc(C(C)C(=O)O)cc1 (stereo not shown) = 0.625
O=C(O)c1ccccc1O = 173
Cc1c(C)c2c(c(C)c1O)CCC(C)(COc1ccc(CC3SC(=O)NC3=O)cc1)O2 (stereo not shown) = 0.625

Req: Name the reported Concentration (of maximum stimulation of adiponectin secretion) value associated with the molecule CC(=O)Oc1ccccc1C(=O)O
Resp: 113
